Test: Effect of concentration on the stability of the solution (purity over time)
Conditions: 15 wt %; in water at 25° C.
Value Type: Purity at Day 14 (%)
Response body: numeric value in %, unit text excluded.

[[record]]
compound = "CCN(CC)CCOC(=O)CC1=C(C)C(=Cc2ccc([S+](C)[O-])cc2)c2ccc(F)cc21.Cl (stereo not shown)"
value_unit = "%"
measured = 97.1

[[record]]
compound = "CCN(CC)CCOC(=O)Cc1ccc(C(=O)c2ccc(C)cc2)n1C.Cl"
value_unit = "%"
measured = 97.4

[[record]]
compound = "CCN(CC)CCOC(=O)CCc1nc(-c2ccccc2)c(-c2ccccc2)o1.Cl"
value_unit = "%"
measured = 98.1

[[record]]
compound = "CCN(CC)CCOC(=O)Cc1sc(-c2ccccc2)nc1-c1ccc(Cl)cc1.Cl"
value_unit = "%"
measured = 98.4


Query: Bench note: what Purity at Day 14 did CCN(CC)CCOC(=O)C(C)c1ccc2oc(-c3ccc(Cl)cc3)nc2c1.Cl (stereo not shown) show?
Reply: 98.1

Query: Bench note: what Purity at Day 14 did CCN(CC)CCOC(=O)Cc1c(C)n(C(=O)c2ccc(Cl)cc2)c2ccc(OC)cc12.Cl show?
Reply: 98.1

Query: Bench note: what Purity at Day 14 did CCN(CC)CCOC(=O)CCc1ccc2cc(OC)ccc2c1.Cl show?
Reply: 98.1

----------
Test: Effect of temperature (and pH) on the stability of the solution (purity)
Format: physicochemical
Conditions: 7% solution in water, pH 1.0, day 21, 40° C.
Measured Purity(%) at day 21 (40° C.) of individual entries
Response body: numeric value in %, unit text excluded.

Query: Bench note: what Purity(%) at day 21 (40° C.) did CCN(CC)CCOC(=O)CC1=C(C)C(=Cc2ccc([S+](C)[O-])cc2)c2ccc(F)cc21.Cl (centres unmarked) show?
Reply: 10.4

----------
Test: Effect of concentration on the stability of the solution (purity over time)
Settings: 3 wt % in 50% ethanol, 25° C.
Value Type: Purity (%) at hr 24
Response body: numeric value in %, unit text excluded.

[[record]]
compound = "CCOC(=O)c1ccccc1 [Ethyl benzoate, reference compound]"
value_type = "Purity (%) at hr 24"
measured = 97.8

[[record]]
compound = "CC(C)OC(=O)c1ccccc1 [Isopropyl benzoate, reference compound]"
value_type = "Purity (%) at hr 24"
measured = 98.6

[[record]]
compound = "CC(C)(C)OC(=O)c1ccccc1 [t-Butyl benzoate, reference compound]"
value_type = "Purity (%) at hr 24"
measured = 15.4

[[record]]
compound = "CC(C)OC(=O)C(N)Cc1ccccc1 (centres unmarked) [Isopropyl 2-amino-3-phenylpropanoate, reference compound]"
value_type = "Purity (%) at hr 24"
measured = 98.6


Now take the following compound into account.
Query: Bench note: what Purity (%) at hr 24 did CC(C)(C)OC(=O)C(N)Cc1ccccc1 (centres unmarked) [t-Butyl 2-amino-3-phenylpropanoate, reference compound] show?
Reply: 96.9

----------
Experiment: Effect of pH value on the stability of the solution (purity)
Format: physicochemical
Conditions: day 14, pH 3.0, 7% in water, 25° C.
Value Type: Purity(%) from day 0-14
Response body: numeric value in %, unit text excluded.

Here are 3 molecules together with their reported answers.
[[record]]
molecule = "CCCCC(=O)O.CCN(CC)CCOC(=O)c1ccccc1OC(C)=O [A-4]"
value_type = "Purity(%) from day 0-14"
measured = 87.5

[[record]]
molecule = "CCN(CC)CCOC(=O)c1ccccc1OC(C)=O.O=C(O)c1ccccc1 [A-2]"
value_type = "Purity(%) from day 0-14"
measured = 91.0

[[record]]
molecule = "CCN(CC)CCOC(=O)c1ccccc1OC(C)=O.O=C(O)/C=C\\C(=O)O [A-1]"
value_type = "Purity(%) from day 0-14"
measured = 90.9


Now take the following molecule into account.
Query: Bench note: what Purity(%) from day 0-14 did CC(O)C(=O)O.CCN(CC)CCOC(=O)c1ccccc1OC(C)=O [A-3] show?
Reply: 88.7

----------
Test: Effect of temperature (and pH) on the stability of the solution (purity)
Format: physicochemical
Settings: 7% solution in water, pH 4.0, day 21, 60° C.
Measured Purity (%) at day 21 (60° C.) of individual entries
Please state the value followed by its unit.

[[record]]
compound = "CCN(CC)CCOC(=O)C(C)c1ccc2oc(-c3ccc(Cl)cc3)nc2c1.Cl (stereo not drawn)"
value_type = "Purity (%) at day 21 (60° C.)"
measured = "18.6 ± 0.2%"


Query: Bench note: what Purity (%) at day 21 (60° C.) did CCN(CC)CCOC(=O)COC(=O)Cc1c(C)n(C(=O)c2ccc(Cl)cc2)c2ccc(OC)cc12.Cl show?
Reply: 19.2 ± 0.3%

Query: Bench note: what Purity (%) at day 21 (60° C.) did CCN(CC)CCOC(=O)Cc1ccc(C(=O)c2ccc(C)cc2)n1C.Cl show?
Reply: 23.0 ± 0.3%

Query: Bench note: what Purity (%) at day 21 (60° C.) did CCN(CC)CCOC(=O)COc1nn(Cc2ccccc2)c2ccccc12.Cl show?
Reply: 23.2 ± 0.2%

----------
Experiment: Effect of concentration on the stability of the solution (purity over time)
Conditions: 0.1 wt % in 50% ethanol, 25° C.
Value Type: Purity (%) at hr 24
Response body: numeric value in %, unit text excluded.

Here are 4 compounds together with their reported answers.
[[record]]
compound = "CC(C)(C)OC(=O)c1ccccc1 [t-Butyl benzoate, reference compound]"
value_type = "Purity (%) at hr 24"
measured = 0.0

[[record]]
compound = "CCOC(=O)c1ccccc1 [Ethyl benzoate, reference compound]"
value_type = "Purity (%) at hr 24"
measured = 97.7

[[record]]
compound = "CC(C)(C)OC(=O)C(N)Cc1ccccc1 (centres unmarked) [t-Butyl 2-amino-3-phenylpropanoate, reference compound]"
value_type = "Purity (%) at hr 24"
measured = 96.4

[[record]]
compound = "CC(C)OC(=O)c1ccccc1 [Isopropyl benzoate, reference compound]"
value_type = "Purity (%) at hr 24"
measured = 98.5


Query: Bench note: what Purity (%) at hr 24 did CC(C)OC(=O)C(N)Cc1ccccc1 (centres unmarked) [Isopropyl 2-amino-3-phenylpropanoate, reference compound] show?
Reply: 98.4

----------
Test: Effect of concentration on the stability of the solution (purity over time)
Details: 0.01% to 10% (or higher) in 50% ethanol at 25° C.
Value Type: Stability of common ester over the concentrations tested

[[record]]
compound = "CCOC(=O)c1ccccc1 [Ethyl benzoate, reference compound]"
measured = "very stable"

[[record]]
compound = "CC(C)OC(=O)c1ccccc1 [Isopropyl benzoate, reference compound]"
measured = "very stable"


----------
Measured Purity(%) at day 21 (25° C.) of individual entries
Test: Effect of temperature (and pH) on the stability of the solution (purity)
Format: physicochemical
Details: 7% solution in water, pH 8.0, day 21, 25° C.
Response body: numeric value in %, unit text excluded.

[[record]]
compound = "CCN(CC)CCOC(=O)Cc1c(C)n(C(=O)c2ccc(Cl)cc2)c2ccc(OC)cc12.Cl"
measured = 47.6


Query: Bench note: what Purity(%) at day 21 (25° C.) did CCN(CC)CCOC(=O)CC1=C(C)C(=Cc2ccc([S+](C)[O-])cc2)c2ccc(F)cc21.Cl (stereo not drawn) show?
Reply: 44.5

Query: Bench note: what Purity(%) at day 21 (25° C.) did CCN(CC)CCOC(=O)C(C)c1ccc2oc(-c3ccc(Cl)cc3)nc2c1.Cl (stereo not drawn) show?
Reply: 47.9

Query: Bench note: what Purity(%) at day 21 (25° C.) did CCN(CC)CCOC(=O)C(C)c1ccc(-c2ccccc2)c(F)c1.Cl (racemic) show?
Reply: 52.8

----------
Experiment: Effect of concentration on the stability of the solution (purity over time)
Conditions: 0.01 wt %; in water at 25° C.
Value Type: Purity at Day 14 (%)
Response body: numeric value in %, unit text excluded.

Here are 5 molecules together with their reported answers.
[[record]]
molecule = "CCN(CC)CCOC(=O)Cc1c(C)n(C(=O)c2ccc(Cl)cc2)c2ccc(OC)cc12.Cl"
value_type = "Purity at Day 14"
value_unit = "%"
measured = 61.3

[[record]]
molecule = "CCN(CC)CCOC(=O)C(C)c1ccc2oc(-c3ccc(Cl)cc3)nc2c1.Cl (centres unmarked)"
value_type = "Purity at Day 14"
value_unit = "%"
measured = 62.3

[[record]]
molecule = "CCN(CC)CCOC(=O)CCc1nc(-c2ccccc2)c(-c2ccccc2)o1.Cl"
value_type = "Purity at Day 14"
value_unit = "%"
measured = 58.9

[[record]]
molecule = "CCN(CC)CCOC(=O)CC1=C(C)C(=Cc2ccc([S+](C)[O-])cc2)c2ccc(F)cc21.Cl (centres unmarked)"
value_type = "Purity at Day 14"
value_unit = "%"
measured = 59.4

[[record]]
molecule = "CCN(CC)CCOC(=O)CCc1ccc2cc(OC)ccc2c1.Cl"
value_type = "Purity at Day 14"
value_unit = "%"
measured = 62.3


Query: Bench note: what Purity at Day 14 did CCN(CC)CCOC(=O)[C@H](C)c1ccc2cc(OC)ccc2c1.Cl (racemic) show?
Reply: 68.7

Query: Bench note: what Purity at Day 14 did CCN(CC)CCOC(=O)Cc1sc(-c2ccccc2)nc1-c1ccc(Cl)cc1.Cl show?
Reply: 58.4

Query: Bench note: what Purity at Day 14 did CCN(CC)CCOC(=O)Cc1ccc(C(=O)c2ccc(C)cc2)n1C.Cl show?
Reply: 57.4
